meta.source: patent US6455700B1

Structures can show the parent of a compound that is named as a salt.
Below, each entry is listed with its recorded melting point.

Examples with their reported melting point follow.
INSERT INTO results (molecule, result) VALUES
  ('CCN/C(=N/C(C)(C)C)N1CCN(C(C(=O)N(C)CCc2cc(C(F)(F)F)cc(C(F)(F)F)c2)c2ccccc2)CC1 (stereo not shown)', '174 to 184 °C (dec.)'),
  ('CN(CCc1cc(C(F)(F)F)cc(C(F)(F)F)c1)C(=O)C(c1ccccc1)N1CCN(/C(=N\C2CCCCC2)NC2CCCCC2)CC1 (stereo not shown)', '182 to 188 °C (dec.)'),
  ('CN(CCc1cc(C(F)(F)F)cc(C(F)(F)F)c1)C(=O)C(c1ccccc1)N1CCN(C(=N)N)CC1 (racemic) (as salt: hydrochloride) [Example 1, dihydrochloride]', '128 to 138 °C');

Q: Report melting point for CNC(=N)N1CCN(C(C(=O)N(C)CCc2cc(C(F)(F)F)cc(C(F)(F)F)c2)c2ccccc2)CC1 (stereo not shown) please.
Ans: 69 to 79 °C
